Hi there, I'd appreciate the recorded z-score for every entry that follows.
# assay: osmotic lysis modulators in infected erythrocytes, primary screen, PSAC antagonist project, cell-based, P. falciparum Indochina, OD700, 3 h (AID 1156)
# reported_conditions: higher = more signal, called active from +8 up or from −8 down
One number for each entry.

compound	z-score
COC(=O)[C@H](Cc1ccccc1)NC(=O)[C@@H](C)CO	0.811

Dear reader, for each entry below, please note its z-score.
1. CCN1C(=O)[C@H]2[C@H]3[C@H](O)[C@H](O)CC(=NOCC(C)C)[C@H]3CC[C@H]2C1=O
2. C[C@H]1CC[C@H]2C(=O)O[C@H](CO)CN2[C@@H]1c1ccc(Br)cc1
3. COC(=O)[C@H](C)NC(=O)CCC1CC(OC(=O)NCc2cccc3ccccc23)CC2(CCCC(COC(=O)NCCC(C)C)O2)O1 (stereo partly drawn)

Reply text:
-0.369
0.0454
-0.355
